Target: HLA-A*31:01
Test: IEDB peptide-MHC binding, purified MHC/competitive/radioactivity; filed as Kd, often an IC50 or EC50 that approximates it; bounds were set here for any values at or beyond the usual limits of such assays
Settings: source organism: Vaccinia virus WR
pKd: −log10 of the molar value.
Quick list: pKd per entry.

Primary Sequence | Result Qualifier | pKd
STDVNKQNK | = | 5.93
TTAFFNTCK | = | 6.65
ILSDENYLLK | = | 4.77
YIWIKNLETY | = | 5.76
VFYRSGTETK | = | 5.08
GLSLQDYCY | ≤ | 4.42
NLKSLLLENK | = | 5.97
IVNEHDIKY | ≤ | 4.40
TLDTMDDMK | ≤ | 4.11
FLLFLEITY | = | 6.80
QMRTPLHKY | = | 5.11
YTLFQQTGR | = | 7.30
DLIAMENLK | = | 4.71
DSMDVLAEKK | = | 6.00
VSENTGMGMY | = | 4.87
RSIAMLKSK | = | 5.82
YFISIYSRPK | = | 6.95
VVRDFENYVK | = | 6.57
ETAKVIKLVK | = | 5.03
MSHLKVALYR | = | 8.65
YIIRRSGCR | = | 7.53
TLNEYKQLY | = | 5.87
DLLNSMMNR | = | 7.37
VLGLGLSLK | = | 5.80
IAQYKCVTIK | = | 5.23
GTDDEVIER | = | 5.65
SFIISTLNK | = | 8.29
FIESSICLDY | = | 5.00
HIKVDHPDK | = | 6.80
FMDEIDHESY | ≤ | 4.66
KASTISWMMK | = | 7.06
SLIKTILASY | = | 5.34
KAKWLTPFEK | = | 6.94
LIVSLCPTK | = | 4.85
AALDGTFQRK | = | 5.37
NMKPNFWSR | = | 9.46
VLCVKKFYK | = | 8.88
MVDVSMMSMY | ≤ | 4.62
AIFTYTGGY | = | 5.15

----------
Biological target: HLA-A*02:01
Experiment: IEDB peptide-MHC binding, purified MHC/competitive/fluorescence; bounds were set here for any values at or beyond the usual limits of such assays
Details: source organism: Sudan ebolavirus

Primary Sequence | IC50
WVIILFQKA | ≥ 341 µM
MQISTIGIR | ≥ 117 µM
IKKPDGSEC | ≥ 318 µM

----------
Target: HLA-A*33:01
Assay: IEDB peptide-MHC binding, purified MHC/competitive/radioactivity; filed as Kd, often an IC50 or EC50 that approximates it; bounds were set here for any values at or beyond the usual limits of such assays
Conditions: source organism: SARS coronavirus Tor2
pKd: −log10 of the molar value.

Primary Sequence | Result Qualifier | pKd
GVRFFFYTSK | = | 4.96
KVIQPRVEK | = | 5.13
STGNYNYKYR | = | 5.96
MLVYCFLGY | = | 5.13
GALHLYFDK | = | 4.81
YLALYNKYK | = | 5.10
RTELGVEFLK | = | 4.80
FLIGANYLGK | ≤ | 4.47
ATAHSELAK | ≤ | 4.11
STAWLCALGK | = | 5.03
